activity at 0.5 h, 1 µM values for the compounds below.
assay system: Cytochrome P450 1B1 (Homo sapiens)
Sequence (Q16678 whole entry): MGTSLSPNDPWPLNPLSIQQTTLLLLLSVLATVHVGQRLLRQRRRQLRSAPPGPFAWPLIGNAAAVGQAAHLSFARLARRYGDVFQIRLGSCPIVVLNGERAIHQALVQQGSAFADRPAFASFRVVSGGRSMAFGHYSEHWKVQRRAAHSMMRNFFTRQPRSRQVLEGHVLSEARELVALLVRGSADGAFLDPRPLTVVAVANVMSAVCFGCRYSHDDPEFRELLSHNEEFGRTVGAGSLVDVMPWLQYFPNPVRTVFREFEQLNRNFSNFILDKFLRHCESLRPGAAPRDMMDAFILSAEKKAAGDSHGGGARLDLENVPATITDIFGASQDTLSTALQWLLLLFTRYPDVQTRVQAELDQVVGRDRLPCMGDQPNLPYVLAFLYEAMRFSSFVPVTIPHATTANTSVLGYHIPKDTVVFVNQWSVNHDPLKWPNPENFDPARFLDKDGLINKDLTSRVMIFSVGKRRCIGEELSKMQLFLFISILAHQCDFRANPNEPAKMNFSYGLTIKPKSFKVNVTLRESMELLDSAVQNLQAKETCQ
assay name: Inhibition of human recombinant CYP1B1 using 7-ethoxyresorufin as substrate assessed as percent enzyme activity at 1 uM after 30 mins in presence of NADPH by EROD assay relative to control
Parameters: scale not given: the % may be the effect or the level left
experimental parameters: read-out: Activity
Report the figure in % without appending any unit label.

Lookup: Which value of activity at 0.5 h, 1 µM has been reported for O=c1cc([C@@H]2CCC[C@H](O)C2)oc2c1ccc1ccccc12 (relative stereo) in the records?
Found: 79.4

Lookup: Entry under review: [N-]=[N+]=NC1CCCC(c2cc(=O)c3ccc4ccccc4c3o2)C1 (mixture of isomers) . Reported activity at 0.5 h, 1 µM?
Found: -4

Lookup: Given `CN(C)C(=S)Oc1cccc(-c2cc(=O)c3ccc4ccccc4c3o2)c1` , state its recorded activity at 0.5 h, 1 µM.
Found: 2.5

Lookup: I have this compound here, `Nc1cccc(-c2cc(=O)c3ccc4ccccc4c3o2)c1` , and I need its recorded activity at 0.5 h, 1 µM.
Found: 0.2

Lookup: Which activity at 0.5 h, 1 µM reading was recorded for the compound `CC(=O)S[C@H]1CC[C@H](c2cc(=O)c3ccc4ccccc4c3o2)CC1` ?
Found: -4.7

Lookup: Any idea what its activity at 0.5 h, 1 µM is? The compound is `N[C@H]1CC[C@H](c2cc(=O)c3ccc4ccccc4c3o2)CC1`
Found: 89.5

Lookup: Any idea what activity at 0.5 h, 1 µM was measured for `COc1cccc(-c2cc(=O)c3ccc4ccccc4c3o2)c1` ?
Found: 1.9

Lookup: Quick one: activity at 0.5 h, 1 µM for `N[C@H]1CC[C@@H](c2cc(=O)c3ccc4ccccc4c3o2)CC1` ?
Found: 81.6

Lookup: Endpoint output: activity at 0.5 h, 1 µM of `O=c1cc(C2=CCCCC2)oc2c1ccc1ccccc12` . Value?
Found: -12.9

Lookup: What does the record list as activity at 0.5 h, 1 µM for O=c1cc(C2CCCC(S)C2)oc2c1ccc1ccccc12 (mixture of isomers) ?
Found: -2.5

Lookup: For the compound `O=c1cc(-c2ccc(O)cc2)oc2c1ccc1ccccc12` , what activity at 0.5 h, 1 µM is on record?
Found: 3.7
